Target: STING in THP1-Dual KI-hSTING-R232 cells (Homo sapiens, UniProt Q86WV6, H232R)
Construct: host or cells: THP1-Dual KI-hSTING-R232 cells (human monocytic THP-1 reporter line)
Sequence (Q86WV6 whole entry H232R): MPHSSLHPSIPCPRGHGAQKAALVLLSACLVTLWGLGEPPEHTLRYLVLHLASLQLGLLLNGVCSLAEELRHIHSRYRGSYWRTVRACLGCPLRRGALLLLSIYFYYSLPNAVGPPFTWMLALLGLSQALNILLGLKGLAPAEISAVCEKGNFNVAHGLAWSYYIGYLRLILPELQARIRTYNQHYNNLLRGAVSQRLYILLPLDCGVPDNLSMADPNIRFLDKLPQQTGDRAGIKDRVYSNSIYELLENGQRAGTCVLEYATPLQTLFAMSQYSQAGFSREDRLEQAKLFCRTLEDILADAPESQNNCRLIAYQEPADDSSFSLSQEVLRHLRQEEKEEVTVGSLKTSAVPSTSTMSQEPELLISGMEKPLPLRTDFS
Assay: Human THP1 reporter cell assay (IRF luciferase reporter)
Assay type: cell-based
Conditions: 24 hours incubation
readout-label: EC50 (µM)
Answer format: numeric, µM implied, no suffix.

Solved cases below.
C=CC[C@H]1COc2cc(C(N)=O)cc3nc(NC(=O)c4cc(C)nn4CC)n1c23
1.6
CCn1nc(C)cc1C(=O)Nc1nc2cc(C(N)=O)cc(OCCCOP(=O)(O)O)c2n1CCC[C@H]1COc2cc(C(N)=O)cc3nc(NC(=O)c4cc(C)nn4CC)n1c23
0.7

Now examine the next entry.
Noted for C=CC[C@H]1CNc2cc(C(N)=O)cc3nc(NC(=O)c4cc(C)nn4CC)n1c23 : its EC50 reads 12
